Measured TGI, listed per entry.
test system: UACC-62 melanoma; experiment: NCI tumour cell line growth inhibition, 48 h
The reply should contain only the number, in µM.

>>> readout_value("COc1ccc2c(c1)c(=O)c1c(NCCCN(C)C)ccc3ncn2c31")
28.7
>>> readout_value("OC1(C2(c3ccc(Cl)cc3)CCCC2)c2ccccc2C2=NCCN21 (stereo unspecified)")
29.7
>>> readout_value("COc1ccc2c(c1OC)C(C=C(c1ccccc1)c1ccccc1)CN(C)C2 (stereo unspecified)")
40.2
>>> readout_value("C[C@]12CC/C(=N\\O)C=C1CC[C@@H]1[C@@H]2CC[C@]2(C)C(=N/O)/C(=C/c3ccncc3)C[C@@H]12")
35

Consider the additional compound presented here.
TGI for "CC(C)C[C@H](NC(=O)CCc1cccc2ccccc12)B(O)O" ?
5.59
